- Tested On: mouse PPARγ ligand-binding site (Mus musculus, UniProt P37238)
- Construct: expressed in transfected cells; host or cells: CV-1 cells (African green monkey kidney)
- Sequence (P37238 204-505): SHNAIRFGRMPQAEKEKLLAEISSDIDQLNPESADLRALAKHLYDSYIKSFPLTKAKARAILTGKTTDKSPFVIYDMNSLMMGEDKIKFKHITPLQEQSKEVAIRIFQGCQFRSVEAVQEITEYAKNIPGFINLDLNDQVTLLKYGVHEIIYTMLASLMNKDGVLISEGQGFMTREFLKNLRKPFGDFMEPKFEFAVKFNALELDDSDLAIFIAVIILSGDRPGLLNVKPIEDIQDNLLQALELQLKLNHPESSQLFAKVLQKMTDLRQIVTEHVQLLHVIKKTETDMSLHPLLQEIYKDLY
- Assay Procedure: Measurement of PPARγ ligand activity (GAL4 chimera luciferase reporter in CV-1 cells)
- Type: cell-based
- Assay Setup: added concentration 10 μg/ml; CV-1 cells, 24 hours; specific activity relative to untreated control (DMSO) = 1.00
Value Kind: PPARγ ligand activity

>  <Molecule>
COc1c(/C=C/C(=O)c2ccc(O)cc2)ccc(O)c1O [Compound 25, Licochalcone B]

>  <PPARγ ligand activity>
1.61

$$$$
>  <Molecule>
CC(C)=CCc1cc(-c2coc3c(CC=C(C)C)c(O)cc(O)c3c2=O)cc(O)c1O [Compound 3, Glyurallin B]

>  <PPARγ ligand activity>
2.73

$$$$

a. CC1(C)C=Cc2c(ccc(C3COc4c(ccc5c4C=CC(C)(C)O5)C3)c2O)O1 (stereo not shown) [Compound 20, Hispaglabridin B]
b. COc1c(-c2ccc(O)cc2)oc2cc(O)cc(O)c2c1=O [Compound 14, Kaempferol3-O-methylester]
### Prompt I need your help: which of the pair a , b has higher PPARγ ligand activity? Please reply using the label of the selected record.
### Response b
